Data provenance: patent US8476197B2

test.conditions: pH 2.7
Marks after values point to notes of the source that are not given here.
measurement.type: Log P

Consider CC#CC1(NC(=C(C#N)C(=O)OCC)c2cccnc2Cl)CCCC1 . Its measured Log P is 3.69^[a]

Consider COC(=O)C(C#N)=C(NC(C)c1cccc(C)c1)c1cccnc1Cl (stereo not drawn) . Its measured Log P is 3.02^[a]

Consider CCOC(=O)C(C#N)=C(NC(C)C1(Cl)CC1)c1sc(C)nc1C(F)(F)F (stereo not drawn) . Its measured Log P is 3.89^[a]

Consider CCOC(=O)C(C#N)=C(NC1(c2c(F)cccc2F)CC1)c1cc(Cl)sc1Cl . Its measured Log P is 4.62^[a]

Consider CCOC(=O)C(C#N)=C(NC1CC1C(C)C)c1cccnc1Cl (stereo not drawn) . Its measured Log P is 3.53^[a]

Consider CCOC(=O)C(C#N)=C(Nc1ccc(OC(F)F)cc1)c1cccnc1Cl . Its measured Log P is 3.19^[a]

Consider CCOC(=O)C(C#N)=C(Nc1ccccc1SC)c1ccsc1Br . Its measured Log P is 3.99^[a]

Consider CCCc1nccc(C(NC(C)c2nccs2)=C(C#N)C(=O)OCC)c1Cl (stereo not drawn) . Its measured Log P is 3.27^[a]

Consider COC(=O)C(C#N)=C(NC1CCC1)c1cccnc1Cl . Its measured Log P is 2.34^[a]
